# Test system: UO-31 renal
# protocol-details: NCI-60 one-dose screen, 48 h (100 = growth as untreated, 0 = no growth, -100 = all killed)
# stated-conditions: 10 µM unless noted
# Experimental: Growth inhibition of the UO-31 human tumor cell line is measured as a screen for anti-cancer activity. Cells are grown in 96 well plates and exposed to the test compound for 48 hours. Compounds are tested at a single concentration, which is 10^-5 M for most compounds. The reported endpoint is percent growth (GI% or GIPRCNT), where numbers from 0 - 100% represent growth inhibition, and numbers from -100% - 0 represent cell death. For example, a value of 40 represents 60% growth inhibition. […]
Compounds without any hit were thinned out: in the full panel of roughly 83,000, 20% have a hit. The source made the active and inactive calls. How the source made its calls: active means growth percent below 10; inactive means the rest.
assay-readout: growth

As a guide, the following entries are already answered.
- compound: "COc1cc(C2C(C#N)=C(N)Oc3cc4c(cc32)OCO4)cc2c1OCO2 (stereo unspecified)"
  growth: "46.3% (inactive)"
- compound: "CCN(CC)CCNC(=O)C(F)(F)C(F)(F)C(F)(F)F"
  growth: "89.9% (inactive)"
- compound: "CCN1C(=O)N(CC)C2C1N=C(SC)N2/N=C/C=C/c1ccccc1OC (stereo unspecified)"
  growth: "41.8% (inactive)"
- compound: "COc1ccc2[nH]cc(C3(c4c[nH]c5ccc(OC)cc45)C(=O)Nc4ccc(Cl)cc43)c2c1"
  growth: "46.3% (inactive)"
- compound: "O=C(O)c1ccccc1Oc1cc(-c2ccco2)nc(OCCN2CCOCC2)n1"
  growth: "87.6% (inactive)"

Note: attention shifts to another entry.
input: growth for CCC1N=C(N)N=C(N)N1c1ccc(Cl)cc1 (stereo unspecified) ?
output: 89% (inactive)

* * *

# Test system: OVCAR-8 ovarian
# protocol-details: NCI-60 one-dose screen, 48 h
# stated-conditions: 10 µM unless noted
About 83,000 compounds went through this panel and 20% of them were active in at least one assay; those are over-represented in the sample as a whole. Calls of active or inactive are those of the source. How the source made its calls: active means growth percent below 10; inactive means the rest.
In this exercise, the only acceptable responses are yes (1) for active, no (0) for inactive

- compound: "COc1cc(CN(CCC(O)N2CCCC2=O)Cc2ccc3c(c2)OCO3)cc(OC)c1OC (centres undefined)"
  assigned-label: "no (0)"
- compound: "O=C(Nc1ccc(-n2ccc3c(NC(=O)c4ccccc4)nccc32)cc1)c1ccc(N2CCOCC2)c(C(F)(F)F)c1"
  assigned-label: "no (0)"

input: Each compound tested received a call. Report the one for CN(C)CCNC(=O)n1cc(-c2ccncc2)c(-c2cc(O)cc(Cl)c2)n1 .
output: no (0)

input: Each compound tested received a call. Report the one for COc1ccc(CC2c3cc(OC)c(OC)cc3CC[N+]2(C)CCC(=O)OCCCCCOC(=O)CC[N+]2(C)CCc3cc(OC)c(OC)cc3C2Cc2ccc(OC)c(OC)c2)cc1OC (centres undefined) .
output: no (0)

input: Each compound tested received a call. Report the one for CCC1N=C(N)N=C(N)N1c1ccc(Cl)cc1 (centres undefined) .
output: no (0)

input: Each compound tested received a call. Report the one for COc1cc(C)c(Cl)cc1C1=NN(c2ccc(S(N)(=O)=O)cc2)C(/C=C/c2ccccc2)C1 (centres undefined) .
output: no (0)

input: Each compound tested received a call. Report the one for O=C(/C=C/c1ccc(F)cc1)N1CCN(C(=O)/C=C/c2ccc(C(F)(F)F)cc2)CC1 .
output: no (0)

input: Each compound tested received a call. Report the one for Fc1ccc(-c2nc(-c3ccc(-c4nc5ccc(F)cc5[nH]4)cc3)no2)cc1 .
output: no (0)

input: Each compound tested received a call. Report the one for C=C(C)[C@@H]1CC[C@]2(C(=O)O)CC[C@]3(C)[C@H](CC[C@@H]4[C@@]5(C)C[C@@H](CC#Cc6ccc(C(C)=O)s6)[C@H](O)C(C)(C)[C@@H]5CC[C@]43C)[C@@H]12 .
output: no (0)

input: Each compound tested received a call. Report the one for CC(=O)c1ccc(Br)c([N+](=O)[O-])c1 .
output: no (0)

input: Each compound tested received a call. Report the one for O=C(Nc1cccc(Cl)c1)Nc1ccccc1Cl .
output: no (0)

input: Each compound tested received a call. Report the one for Cc1ccccc1C1CC(=O)c2ccccc2C1C (centres undefined) .
output: no (0)

input: Each compound tested received a call. Report the one for Cc1c(C(=O)Nc2ccccc2F)sc2c(=O)[nH]cnc12 .
output: no (0)

input: Each compound tested received a call. Report the one for O=C(c1ccccc1)c1cccc(C(Br)Br)c1 .
output: no (0)
